Answer each item with its documented EC50.
- test_system: B1-AR (Homo sapiens)
- Construct: expressed in transfected cells; host or cells: CHO-K1
- Sequence (P08588 whole entry, species assumed): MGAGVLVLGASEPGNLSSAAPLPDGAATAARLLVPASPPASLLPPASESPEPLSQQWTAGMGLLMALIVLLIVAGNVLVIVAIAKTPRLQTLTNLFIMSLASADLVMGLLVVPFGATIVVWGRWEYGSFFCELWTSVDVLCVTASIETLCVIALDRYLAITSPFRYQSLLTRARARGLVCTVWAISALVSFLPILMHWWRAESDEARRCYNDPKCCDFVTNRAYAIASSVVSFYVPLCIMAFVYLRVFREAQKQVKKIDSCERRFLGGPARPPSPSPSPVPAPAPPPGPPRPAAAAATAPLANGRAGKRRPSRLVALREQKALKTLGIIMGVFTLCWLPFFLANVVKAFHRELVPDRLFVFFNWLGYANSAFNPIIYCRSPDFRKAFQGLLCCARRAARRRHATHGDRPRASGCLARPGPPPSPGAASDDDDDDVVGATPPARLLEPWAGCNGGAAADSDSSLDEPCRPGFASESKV
- test_summary: cAMP Gs dynamic HTRF assay, cells expressing beta-adrenergic receptor (CHO-K1), B1-AR
- Assay type: cell-based
- measurement_context: cAMP HTRF, read-out: pEC50 [B1-AR] (converted)

Task item: Report measured EC50 on B1-AR (Homo sapiens); entry: CC(C)(C)NC[C@@H](O)c1ccc(N)nn1
Reply: > 1000 nM

Task item: Report measured EC50 on B1-AR (Homo sapiens); entry: Cc1c(F)cc([C@@H](O)CNC(C)(C)C)c2cn[nH]c12
Reply: < 10 nM

Task item: Report measured EC50 on B1-AR (Homo sapiens); entry: O[C@@H](CNC1CCC1)c1cccc2[nH]ncc12
Reply: < 10 nM

Task item: Report measured EC50 on B1-AR (Homo sapiens); entry: CCC(C)(CC)NC[C@H](O)c1cccc2[nH]ncc12
Reply: < 10 nM

Task item: Report measured EC50 on B1-AR (Homo sapiens); entry: CC(C)(CO)NC[C@H](O)c1cc(C#N)cc2[nH]ncc12
Reply: 100 to 1000 nM

Task item: Report measured EC50 on B1-AR (Homo sapiens); entry: CC(C)NC[C@H](O)c1cccc2[nH]nc(F)c12
Reply: < 10 nM
